- TARGET DESC: human PDE1B enzyme (Homo sapiens (Human))
- ASSAY INFO: IMAP TR-FRET PDE1B enzymatic assay
- Type: biochemical
- MEASUREMENT CONTEXT: negative log of half-maximal molar inhibitory concentration; 200 nM FAM-cAMP; values given as bins; read-out: PDE1b (pIC50) (converted)
Entries and their IC50 values follow.
OBSERVABLE: IC50

1) CCOc1cccc(F)c1CNC(=O)c1c(C)oc2ncnc(NC3(C)CC3)c12: 0.01 to 0.1 µM
2) Cc1oc2ncnc(NC3(C)CC3)c2c1C(=O)N1CCc2cnccc2C1: 0.01 to 0.1 µM
3) Cc1ccc(C2CCN(C(=O)c3c(C)oc4ncnc(NC5(C)CC5)c34)CC2)cn1: 0.01 to 0.1 µM
4) COCCn1nc(C)c(NC(=O)c2c(C)oc3ncnc(NC4(C)CC4)c23)c1C: 0.01 to 0.1 µM
5) Cc1oc2ncnc(NC3(C)CC3)c2c1C(=O)N1CCc2cccnc2C1: 0.01 to 0.1 µM
6) C=CCN(Cc1ccc(OC)cc1)C(=O)c1c(C)oc2ncnc(NC3(C)CC3)c12: 0.01 to 0.1 µM
7) Cc1oc2ncnc(NC3(C)CC3)c2c1C(=O)N1CCOC(c2cccnc2)C1 (centres unmarked): 0.1 to 1 µM
8) Cc1oc2ncnc(NC3(C)CC3)c2c1C(=O)N1CCCC2(C1)OCc1ccccc12 (centres unmarked): 0.1 to 1 µM

* * *

- TARGET DESC: human PDE1B enzyme (Homo sapiens (Human))
- ASSAY INFO: IMAP TR-FRET PDE1B enzymatic assay
- Assay type: biochemical
- MEASUREMENT CONTEXT: negative log of half-maximal molar inhibitory concentration; 200 nM FAM-cAMP; values given as bins; read-out: PDE1b (pIC50) (converted)
OBSERVABLE: IC50

1. Cc1oc2ncnc(NC3(C)CC3)c2c1C(=O)NCc1ncccn1: 10 to 100 nM
2. COc1ccc(CNC(=O)c2c(C)oc3ncnc(NC4(C)CC4)c23)c(Cl)c1: 10 to 100 nM
3. CNC(=O)c1c(C)oc2ncnc(NC3(C)CC3)c12: 100 to 1000 nM
4. Cc1oc2ncnc(NC3(C)CC3)c2c1C(=O)NCc1ccc(O)cn1: 10 to 100 nM
5. Cc1oc2ncnc(NC3(C)CC3)c2c1C(=O)Nc1ccc2scnc2c1: 10 to 100 nM
6. Cc1oc2ncnc(NC3(C)CC3)c2c1C(=O)N1CCc2cnc(F)nc2C1: 10 to 100 nM
7. Cc1oc2ncnc(NC3(C)CC3)c2c1C(=O)Nc1ccc(N2CCOCC2)nc1: 100 to 1000 nM
8. Cc1cnc(CNC(=O)c2c(C)oc3ncnc(NC4(C)CC4)c23)o1: 10 to 100 nM
9. Cc1ccnc(NC(=O)c2c(C)oc3ncnc(NC4(C)CC4)c23)c1: 100 to 1000 nM
10. Cc1ncncc1CNC(=O)c1c(C)oc2ncnc(NC3(C)CC3)c12: 10 to 100 nM
11. Cc1cncc(NC(=O)c2c(C)oc3ncnc(NC4(C)CC4)c23)n1: 100 to 1000 nM
12. Cc1oc2ncnc(NC3(C)CC3)c2c1C(=O)N1CCC2(CC1)OC(=O)Nc1ccc(F)cc12: 10 to 100 nM
13. Cc1oc2ncnc(NC3(C)CC3)c2c1C(=O)NNc1ncc(F)cn1: 100 to 1000 nM
14. Cc1oc2ncnc(NC3(C)CC3)c2c1C(=O)NC(C)c1ccon1 (stereo not drawn): 10 to 100 nM
15. CCc1ncnc2c1CCN(C(=O)c1c(C)oc3ncnc(NC4(C)CC4)c13)C2: 10 to 100 nM
16. Cc1oc2ncnc(NC3(C)CC3)c2c1C(=O)NC(C)c1cncnc1 (stereo not drawn): 10 to 100 nM
17. Cc1cc(C)n(C(=O)c2c(C)oc3ncnc(NC4(C)CC4)c23)n1: 10 to 100 nM
18. COc1ncc2c(n1)CCN(C(=O)c1c(C)oc3ncnc(NC4(C)CC4)c13)C2: 10 to 100 nM
19. Cc1oc2ncnc(NC3(C)CC3)c2c1C(=O)NCC1(C)COC1: 10 to 100 nM
20. Cc1oc2ncnc(NC3(C)CC3)c2c1C(=O)NCc1ncc(C(C)(C)C)o1: 10 to 100 nM
21. Cc1oc2ncnc(NC3(C)CC3)c2c1C(=O)NC1CC(c2ccc(F)cc2)C1 (stereo not drawn): 10 to 100 nM
22. Cc1oc2ncnc(NC3(C)CC3)c2c1C(=O)N1CCc2c(ncnc2N(C)C2CCOCC2)C1: 10 to 100 nM
23. Cc1cnn(C(=O)c2c(C)oc3ncnc(NC4(C)CC4)c23)c1: 100 to 1000 nM
24. Cc1oc2ncnc(NC3(C)CC3)c2c1C(=O)NCCCn1ccnc1: 10 to 100 nM
25. Cc1oc2ncnc(NC3(C)CC3)c2c1C(=O)Nc1cnn(CCN2CCOCC2)c1: 10 to 100 nM
26. COc1cc(CNC(=O)c2c(C)oc3ncnc(NC4(C)CC4)c23)ccc1O: 10 to 100 nM
27. Cc1oc2ncnc(NC3(C)CC3)c2c1C(=O)N(C)Cc1ccccn1: 100 to 1000 nM
28. COCCOc1ncnc2c1CCN(C(=O)c1c(C)oc3ncnc(NC4(C)CC4)c13)C2: 10 to 100 nM
29. Cc1oc2ncnc(NC3(C)CC3)c2c1C(=O)NCc1ccccn1: 10 to 100 nM
30. Cc1oc2ncnc(NC3(C)CC3)c2c1C(=O)N1CCn2cncc2C1: 100 to 1000 nM
31. Cc1oc2ncnc(NC3(C)CC3)c2c1C(=O)N1CCn2ccnc2C1: 10 to 100 nM
32. Cc1ncc(NC(=O)c2c(C)oc3ncnc(NC4(C)CC4)c23)nc1C: 10 to 100 nM
33. Cc1oc2ncnc(NC3(C)CC3)c2c1C(=O)Nc1ccn(C(C)C)n1: 10 to 100 nM
34. Cc1oc2ncnc(NC3(C)CC3)c2c1C(=O)NCc1ccn(C)n1: 10 to 100 nM
35. Cc1oc2ncnc(NC3(C)CC3)c2c1C(=O)N1CCc2c(cc[nH]c2=O)C1: 10 to 100 nM
36. Cc1oc2ncnc(NC3(C)CC3)c2c1C(=O)NCCO: 100 to 1000 nM

* * *

- TARGET DESC: UniProt Q01064
- ASSAY INFO: IMAP TR-FRET PDE1B enzymatic assay
- Type: biochemical
- MEASUREMENT CONTEXT: negative log of half-maximal molar inhibitory concentration; 200 nM FAM-cAMP; values given as bins; read-out: PDE1b (pIC50) (converted)
Entries and their IC50 values follow.
OBSERVABLE: IC50

1) Cc1oc2ncnc(NC3(C)CC3)c2c1C(=O)N(C)Cc1ccsc1 [Example 223]: 10 to 100 nM
2) Cc1oc2ncnc(NC3(C)CC3)c2c1C(=O)N1CCc2c(ncnc2N2CC[C@@H](F)C2)C1 [Example 18]: 10 to 100 nM
3) Cc1oc2ncnc(NC3(C)CC3)c2c1C(=O)NC1CC(F)(F)C1 [Example 128]: 100 to 1000 nM
4) Cc1oc2ncnc(NC3(C)CC3)c2c1C(=O)N(C)Cc1cccs1 [Example 224]: 10 to 100 nM
5) CCc1cc(CN(C)C(=O)c2c(C)oc3ncnc(NC4(C)CC4)c23)on1 [Example 251]: 10 to 100 nM

* * *

Entries and their IC50 values follow.
- TARGET DESC: human PDE1B enzyme (Homo sapiens (Human))
- ASSAY INFO: IMAP TR-FRET PDE1B enzymatic assay
- Assay type: biochemical
- MEASUREMENT CONTEXT: negative log of half-maximal molar inhibitory concentration; 200 nM FAM-cAMP; values given as bins; read-out: PDE1b (pIC50) (converted)
OBSERVABLE: IC50

1. Cc1oc2ncnc(NC3(C)CC3)c2c1C(=O)N1CC(c2ncc(C(F)(F)F)cc2F)C1: 10 to 100 nM
2. Cc1cccc(CNC(=O)c2c(C)oc3ncnc(NC4(C)CC4)c23)n1: 10 to 100 nM
3. C#CC(C)(C)NC(=O)c1c(C)oc2ncnc(NC3(C)CC3)c12: 10 to 100 nM
4. COc1cnc(CNC(=O)c2c(C)oc3ncnc(NC4(C)CC4)c23)cn1: 10 to 100 nM
5. Cc1oc2ncnc(NC3(C)CC3)c2c1C(=O)N(C)C: 100 to 1000 nM
6. Cc1nccc(CNC(=O)c2c(C)oc3ncnc(NC4(C)CC4)c23)n1: 10 to 100 nM
7. Cc1oc2ncnc(NC3(C)CC3)c2c1C(=O)N1CCc2c(F)ncnc2C1: 10 to 100 nM
8. COc1ccccc1OCCN(C)C(=O)c1c(C)oc2ncnc(NC3(C)CC3)c12: 10 to 100 nM
9. Cc1oc2ncnc(NC3(C)CC3)c2c1C(=O)NC(C)C1(C)CC1 (stereo not drawn): 10 to 100 nM
10. Cc1oc2ncnc(NC3(C)CC3)c2c1C(=O)NC1CCc2cccnc21 (stereo not drawn): 100 to 1000 nM
11. Cc1oc2ncnc(NC3(C)CC3)c2c1C(=O)N1CC(F)(c2ccccc2)C1: 10 to 100 nM
12. Cc1oc2ncnc(NC3(C)CC3)c2c1C(=O)N1CCc2c(ccnc2OCF)C1: 10 to 100 nM
13. Cc1oc2ncnc(NC3(C)CC3)c2c1C(=O)Nc1ccc(N2CCOCC2)cn1: 100 to 1000 nM
14. Cc1noc(CNC(=O)c2c(C)oc3ncnc(NC4(C)CC4)c23)n1: 10 to 100 nM
15. Cc1oc2ncnc(NC3(C)CC3)c2c1C(=O)Nc1cnc(N2C[C@@H](C)O[C@@H](C)C2)nc1: 100 to 1000 nM
16. Cc1oc2ncnc(NC3(C)CC3)c2c1C(=O)Nc1cnc(C2CCOCC2)cn1: 10 to 100 nM
17. COc1nc(C)nc2c1CN(C(=O)c1c(C)oc3ncnc(NC4(C)CC4)c13)C2: 100 to 1000 nM
18. Cc1oc2ncnc(NC3(C)CC3)c2c1C(=O)Nc1cnn(-c2ncccn2)c1: 10 to 100 nM
